Molecular target: PCSK9 (Homo sapiens (Human), UniProt Q8NBP7)
Sequence (Q8NBP7 153-692): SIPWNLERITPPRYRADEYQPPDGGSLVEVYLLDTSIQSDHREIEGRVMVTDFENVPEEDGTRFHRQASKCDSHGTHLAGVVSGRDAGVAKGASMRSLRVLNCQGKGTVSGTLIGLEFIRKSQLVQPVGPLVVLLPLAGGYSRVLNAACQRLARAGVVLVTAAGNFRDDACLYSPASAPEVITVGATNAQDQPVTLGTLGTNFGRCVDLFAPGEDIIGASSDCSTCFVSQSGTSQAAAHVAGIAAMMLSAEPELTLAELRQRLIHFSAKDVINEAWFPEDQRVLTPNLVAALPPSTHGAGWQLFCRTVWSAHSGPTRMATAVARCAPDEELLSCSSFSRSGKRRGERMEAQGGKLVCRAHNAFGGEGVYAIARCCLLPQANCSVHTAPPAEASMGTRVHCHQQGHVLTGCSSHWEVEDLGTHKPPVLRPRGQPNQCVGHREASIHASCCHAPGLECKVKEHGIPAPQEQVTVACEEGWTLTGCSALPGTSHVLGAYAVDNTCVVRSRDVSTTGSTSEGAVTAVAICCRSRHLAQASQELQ
Test: PCSK9 Alexa FRET Plus assay (displacement of AlexaFluor647 tagged cyclic peptide Reagent B)
Format: binding
Settings: Alexa FRET Plus, 0.5 nM PCSK9, 960 nM AF cyclic peptide Reagent B; read-out: IC50
Protocol: A solution containing 1 nM biotinylated PCSK9+2.5 nM Lance Streptavidin Europium (Strep-Eu) was made in 50 mM HEPES pH 7.4, 0.15 M NaCl, 5 mM CaCl2), 0.01% BSA, and 0.01% Surfactant P20. […] The reaction was incubated at room temperature for at least two hours prior to fluorescence measurements using an Envision Multilabel Reader. IC50 values were determined by fitting data to a sigmoidal dose-response curve using nonlinear regression. […]
pIC50: −log10 of the molar value. Starred links: 1 amine or outer side, 2 acyl side, 3 side chain; linkers in the order of their positions; H or OH if unused. Positions of bridges follow the written chain, without caps; N, C: chain ends. Non-standard residues stand in square brackets, D forms with d. Residues, ends and D or L forms follow the SMILES beside them. Groups on a side chain read outwards from the residue. *: point of attachment. X50 = C[C@@H](N[*:1])C(=O)C[C@@H](Cc1c[nH]c2ccc(F)cc12)C(=O)[*:2]; Trp(5-F) = N[C@@H](Cc1c[nH]c2ccc(F)cc12)C(=O)O; γGlu = O=C(O)[C@H](CCC(=O)[*:2])N[*:1]; mXylylene = c1cc(C[*:1])cc(C[*:2])c1; Palmitoyl = CCCCCCCCCCCCCCCC(=O)*; αMeP = C[C@@]1(C(=O)O)CCCN1; AEEA = NCCOCCOCC(=O)O; Mpa = O=C(O)CCS
Recorded pIC50 for the following compounds

{"columns": ["compound", "pIC50"],
 "data": [
  ["NCCCC[C@@H]1NC(=O)CCCn2cc(nn2)C[C@@H](C(N)=O)NC(=O)[C@@H]2CCCN2C(=O)[C@H](Cc2ccc(O)cc2)NC(=O)[C@H](Cc2c[nH]cn2)NC(=O)[C@H](CC(=O)O)NC(=O)[C@H](Cc2c[nH]c3ccc(F)cc23)NC(=O)[C@H](Cc2c[nH]c3ccc(F)cc23)NC(=O)CNC1=O [Compound 184]", "7.00 to 10.00"],
  ["CCCCCCCCCCCCCCCC(=O)N[C@@H](CCC(=O)NCCOCCOCC(=O)NCCOCCOCC(=O)NCCCC[C@@H]1NC(=O)[C@H](Cc2c[nH]c3ccc(F)cc23)NC(=O)[C@H](Cc2c[nH]c3ccc(F)cc23)CC(=O)[C@@H](C)NC(=O)[C@H](CCCCN)NC(=O)CCSCc2cccc(c2)CSC[C@@H](C(N)=O)NC(=O)[C@]2(C)CCCN2C(=O)[C@H](Cc2ccc(O)cc2)NC(=O)[C@H]([C@@H](C)O)NC1=O)C(=O)O [Compound 101] ([Mpa]K[X50][Trp(5-F)]K([AEEA-AEEA-γGlu-Palmitoyl])TY[αMeP]C-NH2; linker 1-9 via mXylylene)", "6.30 to 7.00"],
  ["C[C@@]12CCCN1C(=O)[C@H](Cc1ccc(O)cc1)NC(=O)N[C@H]1CCCc3ccc(cc31)C(=O)[C@H](Cc1c[nH]c3ccc(F)cc13)NC(=O)[C@H](Cc1c[nH]c3ccc(F)cc13)NC(=O)CNC(=O)[C@H](CCCCN)NC(=O)CCSCc1cccc(c1)CSC[C@@H](C(N)=O)NC2=O [Compound 139]", "5.30 to 6.30"]
]}

---

molecular target: PCSK9 (Homo sapiens (Human)); experiment: PCSK9 Alexa FRET Standard assay (displacement of AlexaFluor647 tagged cyclic peptide Reagent A); type: binding; conditions: PCSK9 Alexa FRET Standard assay, 0.5 nM PCSK9, 20 nM AF cyclic peptide Reagent A; read-out: IC50
Starred links: 1 amine or outer side, 2 acyl side, 3 side chain; linkers in the order of their positions; H or OH if unused. Positions of bridges follow the written chain, without caps; N, C: chain ends. Non-standard residues stand in square brackets, D forms with d. Residues, ends and D or L forms follow the SMILES beside them. Trp(5-F) = N[C@@H](Cc1c[nH]c2ccc(F)cc12)C(=O)O; X16 = O=C([C@H](CCCCCC=[*:3])N[*:1])[*:2]; X12 = O=C([C@H](CCCCC=[*:3])N[*:1])[*:2]; X4 = O=C(CCSCc1cccc(CSCCN[*:1])c1)[*:2]; Hag = O=C([C@H](CCC=[*:3])N[*:1])[*:2]; αMeP = C[C@@]1(C(=O)O)CCCN1
Recorded IC50 for the following compounds
measurement label: IC50

{"columns": ["compound", "target under test", "measurement label", "assay value"],
 "data": [
  ["COc1ccc(C[C@@H]2NC(=O)[C@H]([C@@H](C)O)NC(=O)[C@@H]3CCCC/C=C\\CCCC[C@H](NC(=O)[C@@H](C)NC(=O)[C@H](C)NC(=O)CCSCc4cccc(c4)CSCCNC(=O)[C@]4(C)CCCN4C2=O)C(=O)N[C@@H](Cc2c[nH]c4ccc(F)cc24)C(=O)N3)cc1 [Compound 495] (cyclo(A[dA][X12][Trp(5-F)][X12]TY(Me)[αMeP][X4]); staple (Z) 3-5)", "PCSK9 (Homo sapiens (Human))", "IC50", "0.11 to 100 nM"],
  ["COc1ccc(C[C@@H]2NC(=O)[C@H]([C@@H](C)O)NC(=O)[C@@H]3CCCCC/C=C/CC[C@H](NC(=O)[C@@H](C)NC(=O)[C@H](C)NC(=O)CCSCc4cccc(c4)CSCCNC(=O)[C@]4(C)CCCN4C2=O)C(=O)N[C@@H](Cc2c[nH]c4ccc(F)cc24)C(=O)N3)cc1 [Compound 496] (cyclo(A[dA][Hag][Trp(5-F)][X16]TY(Me)[αMeP][X4]); staple (E) 3-5)", "PCSK9 (Homo sapiens (Human))", "IC50", "100 to 1000 nM"]
]}

---

target: PCSK9 (Homo sapiens (Human), UniProt Q8NBP7); assay: PCSK9 Alexa FRET Standard assay (displacement of AlexaFluor647 tagged cyclic peptide Reagent A); assay type: binding; settings: PCSK9 Alexa FRET Standard assay, 0.5 nM PCSK9, 20 nM AF cyclic peptide Reagent A; read-out: IC50
Starred links: 1 amine or outer side, 2 acyl side, 3 side chain; linkers in the order of their positions; H or OH if unused. Positions of bridges follow the written chain, without caps; N, C: chain ends. Non-standard residues stand in square brackets, D forms with d. Residues, ends and D or L forms follow the SMILES beside them. NMeTrp(1-Me) = CN[C@@H](Cc1cn(C)c2ccccc12)C(=O)O; Trp(5-OH) = N[C@@H](Cc1c[nH]c2ccc(O)cc12)C(=O)O; Phe(4-COOH) = N[C@@H](Cc1ccc(C(=O)O)cc1)C(=O)O; Trp(5-F) = N[C@@H](Cc1c[nH]c2ccc(F)cc12)C(=O)O; Phe(4-CH2NH2) = NCc1ccc(C[C@H](N)C(=O)O)cc1; isoGln = NC(=O)[C@H](CCC(=O)[*:2])N[*:1]; Nle(6-COOH) = N[C@@H](CCCCC(=O)O)C(=O)O; X4 = O=C(CCSCc1cccc(CSCCN[*:1])c1)[*:2]; Orn(N3) = [N-]=[N+]=NCCC[C@H](N)C(=O)O; 2Nal = N[C@@H](Cc1ccc2ccccc2c1)C(=O)O; mXylylene = c1cc(C[*:1])cc(C[*:2])c1; AEF = NCCOc1ccc(C[C@H](N)C(=O)O)cc1; X53 = C#CCCC[C@H](N[*:1])C(=O)[*:2]; d(aThr) = C[C@@H](O)[C@@H](N)C(=O)O; X7 = O=C(Cc1ccc(CN[*:1])cc1)[*:2]; NMeT = CN[C@H](C(=O)O)[C@@H](C)O; dNMeL = CN[C@H](CC(C)C)C(=O)O; αMeP = C[C@@]1(C(=O)O)CCCN1; Nva = CCC[C@H](N)C(=O)O; Ava = NCCCCC(=O)O; Mpa = O=C(O)CCS
measurement label: IC50

{"columns": ["compound", "measurement label", "assay value"],
 "data": [
  ["COc1ccc(C[C@@H]2NC(=O)[C@H]([C@@H](C)O)NC(=O)[C@]3(C)CCCN3C(=O)[C@H](Cc3c[nH]c4ccc(F)cc34)NC(=O)[C@H](Cc3c[nH]c4ccc(F)cc34)NC(=O)[C@@H](C)NC(=O)[C@H](CCCCN)NC(=O)CCSCc3cccc(c3)CSCCNC(=O)[C@]3(C)CCCN3C2=O)cc1 [Compound 025] (cyclo(K[dA][Trp(5-F)][Trp(5-F)][αMeP]TY(Me)[αMeP][X4]))", "IC50", "0.1 to 1 µM"],
  ["CCC[C@@H]1NC(=O)CCSCc2cccc(c2)CSC[C@@H](C(N)=O)NC(=O)[C@@H]2CCCN2C(=O)[C@H](Cc2ccc(OC)cc2)NC(=O)[C@H]([C@@H](C)OC)N(C)C(=O)[C@@H]2CCCN2C(=O)[C@H](Cc2cn(C)c3ccccc23)N(C)C(=O)[C@H](Cc2ccc3ccccc3c2)NC(=O)[C@@H](CC(C)C)N(C)C1=O [Compound 039] ([Mpa][Nva][dNMeL][2Nal][NMeTrp(1-Me)]P[NMeT](Me)Y(Me)PC-NH2; linker 1-10 via mXylylene)", "IC50", "21 to 50 µM"],
  ["NCCCC[C@@H]1NC(=O)CCSCc2cccc(c2)CSC[C@@H](C(N)=O)NC(=O)[C@@H]2CCCN2C(=O)[C@H](Cc2ccc(O)cc2)NC(=O)[C@H](Cc2c[nH]cn2)NC(=O)[C@H](CC(=O)O)NC(=O)[C@H](Cc2c[nH]c3ccc(F)cc23)NC(=O)[C@H](Cc2c[nH]c3ccc(F)cc23)NC(=O)CNC1=O [Compound 149] ([Mpa]KG[Trp(5-F)][Trp(5-F)]DHYPC-NH2; linker 1-10 via mXylylene)", "IC50", "1 to 12.1 µM"],
  ["COc1ccc(C[C@@H]2NC(=O)[C@H](Cc3cnc[nH]3)NC(=O)[C@H](CC(=O)O)NC(=O)[C@H](Cc3c[nH]c4ccc(F)cc34)NC(=O)[C@H](Cc3c[nH]c4ccc(F)cc34)NC(=O)[C@@H](C)NC(=O)[C@H](CCCCN)NC(=O)[C@@H](NC(C)=O)CC(=O)NCCOc3ccc(cc3)C[C@@H](C(N)=O)NC(=O)[C@]3(C)CCCN3C2=O)cc1 [Compound 349] (Ac-DK[dA][Trp(5-F)][Trp(5-F)]DHY(Me)[αMeP][AEF]-NH2; lactam 1-10)", "IC50", "0.00011 to 0.1 µM"],
  ["COc1ccc(C[C@@H]2NC(=O)[C@H](Cc3cnc[nH]3)NC(=O)[C@H](CC(=O)O)NC(=O)[C@H](Cc3c[nH]c4ccc(F)cc34)NC(=O)[C@H](Cc3c[nH]c4ccc(F)cc34)NC(=O)[C@@H](C)NC(=O)CCCCNC(=O)c3ccc(cc3)C[C@@H](C(N)=O)NC(=O)[C@]3(C)CCCN3C2=O)cc1 [Compound 380] ([Ava][dA][Trp(5-F)][Trp(5-F)]DHY(Me)[αMeP][Phe(4-COOH)]-NH2; lactam N-9)", "IC50", "21 to 50 µM"],
  ["COc1ccc(C[C@@H]2NC(=O)[C@@H]([C@@H](C)O)NC(=O)[C@H](CCCCC(=O)O)NC(=O)[C@H](Cc3c[nH]c4ccc(F)cc34)NC(=O)[C@H](Cc3ccc(CN)cc3)NC(=O)[C@@H](C)NC(=O)[C@H](C)NC(=O)CCSCc3cccc(c3)CSCCNC(=O)[C@]3(C)CCCN3C2=O)cc1 [Compound 385] (cyclo(A[dA][Phe(4-CH2NH2)][Trp(5-F)][Nle(6-COOH)][d(aThr)]Y(Me)[αMeP][X4]))", "IC50", "0.00011 to 0.1 µM"],
  ["C#CCCC[C@@H]1NC(=O)[C@H](Cc2c[nH]c3ccc(F)cc23)NC(=O)[C@H](CCCN=[N+]=[N-])NC(=O)[C@@H](C)NC(=O)[C@H](C)NC(=O)CCSCc2cccc(c2)CSCCNC(=O)[C@]2(C)CCCN2C(=O)[C@H](Cc2ccc(OC)cc2)NC(=O)[C@H]([C@@H](C)O)NC1=O [Compound 078] (cyclo(A[dA][Orn(N3)][Trp(5-F)][X53]TY(Me)[αMeP][X4]))", "IC50", "0.1 to 1 µM"],
  ["COc1ccc(C[C@@H]2NC(=O)[C@H](Cc3cnc[nH]3)NC(=O)[C@H](CC(=O)O)NC(=O)[C@H](Cc3c[nH]c4ccc(F)cc34)NC(=O)[C@H](Cc3c[nH]c4ccc(F)cc34)NC(=O)[C@@H](C)NC(=O)[C@H](NC(C)=O)CCCCNC(=O)Cc3ccc(cc3)CNC(=O)CC[C@@H](C(N)=O)NC(=O)[C@]3(C)CCCN3C2=O)cc1 [Compound 398] (Ac-[dK][dA][Trp(5-F)][Trp(5-F)]DHY(Me)[αMeP][isoGln][X7]; lactam 1-C)", "IC50", "0.00011 to 0.1 µM"],
  ["C[C@@]12CCCN1C(=O)[C@H](Cc1ccc(O)cc1)NC(=O)[C@H](Cc1cnc[nH]1)NC(=O)[C@H](CC(=O)O)NC(=O)[C@H](Cc1c[nH]c3ccc(O)cc13)NC(=O)[C@H](Cc1c[nH]c3ccc(O)cc13)NC(=O)CNC(=O)[C@H](CCCCN)NC(=O)CCSCc1cccc(c1)CSC[C@@H](C(N)=O)NC2=O [Compound 415] ([Mpa]KG[Trp(5-OH)][Trp(5-OH)]DHY[αMeP]C-NH2; linker 1-10 via mXylylene)", "IC50", "0.00011 to 0.1 µM"],
  ["CC(C)C[C@H]1C(=O)N[C@@H](Cc2ccc(O)cc2)C(=O)N2CCC[C@@]2(C)C(=O)N[C@H](C(N)=O)CSCc2cccc(c2)CSCCC(=O)N[C@@H](CCCCN)C(=O)NCC(=O)N[C@@H](Cc2c[nH]c3ccc(F)cc23)C(=O)N[C@@H](Cc2c[nH]c3ccc(F)cc23)C(=O)N2CCC[C@@]23CCN1C3=O", "IC50", "0.1 to 1 µM"]
]}
